# testTarget: T1, full length human TPO-R (human, UniProt P40238 26-635)
# T1 sequence (looked up): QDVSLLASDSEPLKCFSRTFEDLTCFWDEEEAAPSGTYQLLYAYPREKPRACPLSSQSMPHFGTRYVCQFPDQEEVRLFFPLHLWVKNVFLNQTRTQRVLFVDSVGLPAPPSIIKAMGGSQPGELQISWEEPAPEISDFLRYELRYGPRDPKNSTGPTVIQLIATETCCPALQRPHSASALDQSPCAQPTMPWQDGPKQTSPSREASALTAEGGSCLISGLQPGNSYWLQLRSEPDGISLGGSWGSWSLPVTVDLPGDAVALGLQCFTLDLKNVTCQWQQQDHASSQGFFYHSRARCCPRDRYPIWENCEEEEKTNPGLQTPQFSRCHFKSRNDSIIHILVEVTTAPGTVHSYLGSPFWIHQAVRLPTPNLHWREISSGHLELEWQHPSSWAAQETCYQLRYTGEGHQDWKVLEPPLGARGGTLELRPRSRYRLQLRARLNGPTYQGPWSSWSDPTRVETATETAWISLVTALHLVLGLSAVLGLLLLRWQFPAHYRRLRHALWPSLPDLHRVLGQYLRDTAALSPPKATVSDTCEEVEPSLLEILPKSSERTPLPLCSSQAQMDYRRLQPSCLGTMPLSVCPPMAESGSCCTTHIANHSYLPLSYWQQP
# assaySummary: cell-based or functional assay
Bridges are numbered along the chain shown (N, C = ends). Where no end group is shown, it is not given here. [ ]: non-standard residue; d: D form. hPhe = N[C@@H](CCc1ccccc1)C(=O)O; NMeV = CN[C@H](C(=O)O)C(C)C; Sar = CNCC(=O)O
Give measured EC50 cell proliferation for each item. Keep answers brief.

Guide cases for EC50 cell proliferation, answers given:
[
  {
    "binder": "CADGPTLREWI[NMeV]FC (disulfide 1-14 (inferred); not fully specified) [SEQ ID NO:12 cyclized, S - (N-Me-Val)]",
    "dataValue": "≤ 200 µM"
  },
  {
    "binder": "CADGPTLREWI[Sar]FC (disulfide 1-14 (inferred); not fully specified) [SEQ ID NO:12 cyclized, S - Sar]",
    "dataValue": "~200 µM"
  },
  {
    "binder": "CADGPTLREWIAFC (also: cyclized, mode not given here) [SEQ ID NO:12 cyclized, S - A]",
    "dataValue": "≤ 0.5 µM"
  }
]

Please state, for each entry, its recorded EC50 cell proliferation.
1. CADGPTLREWIS[hPhe]C (disulfide 1-14 (inferred); not fully specified) [SEQ ID NO:12 cyclized, F - Homo-Phe]
2. CADGPTLREWISAC (also: cyclized, mode not given here) [SEQ ID NO:12 cyclized, F - A]

Given back:
1. ≤ 0.5 µM
2. ~200 µM
